System: CP256
protocol_text: qHTS profiling for inhibitors of Plasmodium falciparum proliferation (AID 504749); also: nearly all actives have a fitted effect of over 60% in size
experimental_context: P. falciparum in erythrocytes, SYBR Green DNA, 72 h; series mostly up to 28.7 µM
Records with an inconclusive call do not appear. Calls of active or inactive are those of the source. Calls follow the shape of the dose curve; as a rule, active = well fitted inhibition curve with a large enough effect; inconclusive = small, poorly fitted or top-dose-only effect; inactive = flat fitted curve, though single readings scatter.
Please reply with one of these outcomes: 1 (yes) for active, 0 (no) for inactive

Cc1cnc(NC(=O)C2C(=O)c3ccccc3S(=O)(=O)N2C)s1 (centres undefined)	0 (no)

Note: attention shifts to another entry.
Ask: Called result for `C#C[C@@]1(O)CC[C@@H]2[C@H]3CCC4=C/C(=N\O)CC[C@H]4[C@@H]3CC[C@]21CC`
Result: 0 (no)

---

Exercise: state measured Potency for each of the molecules provided.
test_target: Glucocorticoid receptor (Homo sapiens)
protocol_text: GR-EFC Redistribution (AID 451); also: potency is read from the fitted curve at half-maximal effect
experimental_context: CHO-K1 GR-EFC translocation, beta-gal luminescence, 2 h
Activity calls are given as the source filed them. The call rests on the fitted dose curve.

COc1cccc2c1C(=O)c1c(O)c3c(c(O)c1C2=O)C[C@](O)(C(C)=O)C[C@H]3O[C@@H]1C[C@H](N)[C@H](O)[C@H](C)O1	> 20.6 µM (inactive)
CC[C@]1([C@H]2O[C@@H]([C@@H]3O[C@](O)(CO)[C@@H](C)C[C@H]3C)C[C@H]2C)CC[C@@H]([C@]2(C)CC[C@@]3(C[C@@H](O)[C@@H](C)[C@@H]([C@H](C)[C@H](OC)[C@H](C)C(=O)O)O3)O2)O1	> 20.6 µM (inactive)
CN1CCc2cc3c(cc2C(=O)Cc2ccc4c(c2C1)OCO4)OCO3	> 46 µM (inactive)
O=c1c(O)c(-c2ccc(O)c(O)c2)oc2ccccc12	> 46 µM (inactive)
CC(C)C[C@@H](CC(=O)N[C@@H](CCC(=O)O)CC(=O)O)NC(=O)[C@@H]1CNCC[C@H]1NC(=O)C[C@H](CCCN)NC(=O)C[C@H](Cc1ccccc1)NC(=O)[C@@H]1CNCC[C@H]1N	> 46 µM (inactive)

API: the following record is the query input.
Ask: Using the record for `CC(C)C[C@@H](CC(=O)N[C@@H](CCCN)CC(=O)N[C@@H]1CCCC[C@H]1C(=O)N[C@H](CC(=O)N[C@@H](CCC(=O)O)CC(=O)O)Cc1ccccc1)NC(=O)[C@@H]1CNCC[C@H]1N` , state its measured Potency.
Result: > 46 µM (inactive)

---

System: Dd2
protocol_text: qHTS profiling for inhibitors of Plasmodium falciparum proliferation (AID 504749); also: nearly all actives have a fitted effect of over 60% in size
experimental_context: P. falciparum in erythrocytes, SYBR Green DNA, 72 h; series mostly up to 28.7 µM
Inconclusive results are not listed. Activity calls are given as the source filed them. The call rests on the fitted dose curve; in most records, active means well fitted inhibition curve with a large enough effect; inconclusive means small, poorly fitted or top-dose-only effect; inactive means flat fitted curve, though single readings scatter.
Please reply with one of these outcomes: active, inactive

Completed entries (count: 4):
Nc1nc(/C(=C/CC(=O)O)C(=O)NC2C(=O)N3C(C(=O)O)=CCSC23)cs1 (configuration not stated)	inactive
COc1ccc(S(=O)(=O)N2c3ccc(Cl)cc3[C@](O)(c3ccccc3Cl)[C@@H]2C(=O)N2CCC[C@H]2C(N)=O)cc1OC	inactive
CC(=O)N[C@H]1[C@H](O[C@@H]2c3ccc(c(Cl)c3)Oc3cc4cc(c3O[C@@H]3O[C@H](CO)[C@@H](O)[C@H](O)C3C)Oc3ccc(cc3Cl)C[C@H]3NC(=O)[C@@H](N)c5ccc(O)c(c5)Oc5cc(O)cc(c5)[C@H](NC3=O)C(=O)N[C@H]4C(=O)N[C@H]3C(=O)N[C@@H]2C(=O)N[C@@H](C(=O)O)c2cc(O)cc(O[C@H]4O[C@H](CO)[C@@H](O)C(O)[C@@H]4O)c2-c2cc3ccc2O)O[C@H](CO)[C@@H](O)[C@@H]1O (some centres not stated)	inactive
CNC1C(O)C(OC2C(N)CC(N)C(OC3OC(CN)=CCC3N)C2O)OCC1(C)O (configuration not stated)	inactive

Ask: Called result for COc1cccc2c1C(=O)c1c(O)c3c(c(O)c1C2=O)C[C@@](O)(C(=O)CO)C[C@@H]3OC1CC(N)C(O)C(C)O1 (some centres not stated)
Result: active

Ask: Called result for `CC1=C(c2ccc(NN=C(C#N)C#N)cc2)NNC(=O)C1`
Result: inactive

Ask: Called result for Cc1ccc(/C=C2/C(=O)C3(C)CCC2C3(C)C)cc1 (configuration not stated)
Result: inactive

---

protocol_text: qHTS Assay for Identification of Small Molecule Antagonists for NFkB Signaling Pathway (AID 895)
experimental_context: NFkB beta-lactamase reporter cells, FRET ratio 460/530, stimulated with 10 pM TNF alpha; series mostly up to 38.3 µM
Inconclusive results are not listed. Active and inactive are the calls of the source. Calls follow the shape of the dose curve; as a rule, active = well fitted inhibition curve with a large enough effect in the signal ratio, with a control signal flat (not every such curve was filed as active); inconclusive = small, poorly fitted or top-dose-only effect, or effect the other way, or a change in a side signal; inactive = flat fitted curve, though single readings scatter; the % refers to the signal ratio.
Please reply with one of these outcomes: t = active, f = inactive

Ask: Called result for `FC(F)(F)c1cc(CO[C@@H]2CCCN[C@H]2c2ccccc2)cc(C(F)(F)F)c1`
Result: f

Ask: Called result for `C/C=C1\C(=O)C[C@@H]2[C@@H]3CCC4=CC(=O)CC[C@@]4(C)[C@H]3CC[C@@]12C`
Result: f

Ask: Called result for C[C@H](N)C1CCC(C(=O)Nc2ccncc2)CC1 (stereo partly specified)
Result: t

Ask: Called result for `C[C@@]12CCC(=O)C=C1CC[C@@H]1[C@@H]2[C@H](O)C[C@]2(C)[C@@H]1CC[C@]2(O)C(=O)COC(=O)CCC(=O)O`
Result: t

Ask: Called result for `O=c1[nH]c(=O)n([C@H]2C[C@H](O)[C@H](CO)O2)cc1/C=C\Br`
Result: f

---

Tested on: PC15
protocol_text: qHTS profiling for inhibitors of Plasmodium falciparum proliferation (AID 504749); also: nearly all actives have a fitted effect of over 60% in size; also: potency is read from the fitted curve at half-maximal effect
experimental_context: P. falciparum in erythrocytes, SYBR Green DNA, 72 h; series mostly up to 28.7 µM
Results filed as inconclusive are left out. Active and inactive are the calls of the source. The call rests on the fitted dose curve; in most records, active means well fitted inhibition curve with a large enough effect; inconclusive means small, poorly fitted or top-dose-only effect; inactive means flat fitted curve, though single readings scatter.
quantity_name: Potency

For orientation, consider the following solved cases.
C=CC1CN2CCC1CC2[C@@H](O)c1ccnc2ccc(OC)cc12 (some centres undefined)	89.1 nM (active)
C[n+]1c2cc(N)ccc2cc2ccc(N)cc21	178 nM (active)
CCCCC(=O)OCC(=O)[C@]1(O)Cc2c(O)c3c(c(O)c2[C@H](OC2CC(NC(=O)C(F)(F)F)C(O)C(C)O2)C1)C(=O)c1c(OC)cccc1C3=O (some centres undefined)	3550 nM (active)
OCC(O)C(O)C(O)C(O)CO (centres undefined)	inactive
CC(=O)OCC(=O)[C@@]1(O)CCC2C3CCC4=CC(=O)C=CC4(C)C3C(O)C[C@]21C (some centres undefined)	inactive
CC(O)C1CCC2C3CCC4CC(O)CCC4(C)C3CCC12C (centres undefined)	inactive

Give measured Potency for every item shown.
1. O=c1[nH]c(=O)n(C2C[C@H](O)[C@@H](CO)O2)cc1C(F)(F)F (some centres undefined)
2. CC(=O)C1(O)Cc2c(O)c3c(c(O)c2C(OC2CC(N)C(O)C(C)O2)C1)C(=O)c1c(O)cccc1C3=O (centres undefined)
3. CC(C)C(=O)OCC(=O)[C@@]12OC(C3CCCCC3)O[C@@H]1CC1C3CCC4=CC(=O)C=C[C@]4(C)C3[C@@H](O)C[C@@]12C (some centres undefined)

Result:
1. inactive
2. 11200 nM (active)
3. 1580 nM (active)

---

Test system: ATS95
protocol_text: qHTS profiling for inhibitors of Plasmodium falciparum proliferation (AID 504749); also: nearly all actives have a fitted effect of over 60% in size; also: potency is read from the fitted curve at half-maximal effect
experimental_context: P. falciparum in erythrocytes, SYBR Green DNA, 72 h; series mostly up to 28.7 µM
Inconclusive results are not listed. Activity calls are given as the source filed them. The call rests on the fitted dose curve; in most records, active means well fitted inhibition curve with a large enough effect; inconclusive means small, poorly fitted or top-dose-only effect; inactive means flat fitted curve, though single readings scatter.
quantity_name: Potency

COc1cc2c(cc1O)CCN[C@@]21CS[C@H]2c3c(OC(C)=O)c(C)c4c(c3C(COC1=O)N1C2C2c3c(cc(C)c(OC)c3O)CC([C@@H]1O)N2C)OCO4 (stereo partly drawn)	0.9 nM (active)
CCCCC(=O)OCC(=O)[C@]1(O)Cc2c(O)c3c(c(O)c2[C@H](OC2CC(NC(=O)C(F)(F)F)C(O)C(C)O2)C1)C(=O)c1c(OC)cccc1C3=O (stereo partly drawn)	2000 nM (active)
C=CCn1c(=O)n(C2OC(CO)C(O)C2O)c2nc(N)[nH]c(=O)c21 (stereo not drawn)	inactive
CC1OC(OCC2OC(Oc3c(-c4ccc(OCCO)c(OCCO)c4)oc4cc(OCCO)cc(O)c4c3=O)C(O)C(O)C2O)[C@@H](O)C(O)C1O (stereo partly drawn)	inactive
C[C@]12CC[C@@H]3c4ccc(O)cc4CC[C@H]3[C@@H]1CCC2OC(=O)CCC1CCCC1 (stereo partly drawn)	inactive

Give measured Potency for every item shown.
1. CO/N=C(/C(=O)N[C@@H]1C(=O)N2C(C(=O)O)=C(CSc3nnnn3C)CS[C@H]12)c1csc(N)n1
2. CCN(CC)C(=O)Nc1ccc(OC[C@H](O)CNC(C)(C)C)c(C(C)=O)c1
3. O=C1NC(=O)C2C3C=CC(C3)C12 (stereo not drawn)
4. CC(=O)OCC(=O)[C@@]1(O)CCC2C3C[C@H](C)C4=CC(=O)C=CC4(C)C3C(O)CC21C (stereo partly drawn)
5. C=C1NC(=O)c2cc(CN(C)c3ccc(C(=O)N[C@@H](CCC(=O)O)C(=O)O)s3)ccc2N1
6. CC(C)C[C@@H](NC(=O)[C@@H](Cc1ccccc1)NC(=O)c1cnccn1)B(O)O
7. CC1(C)SC2C(NC(=O)C(C(=O)O)c3ccccc3)C(=O)N2C1C(=O)O (stereo not drawn)

Result:
inactive
inactive
inactive
inactive
inactive
112 nM (active)
inactive

Give measured Potency for every item shown.
1. O=C(O)C(O)c1ccccc1 (stereo not drawn)
2. CCCC[C@H](O)c1ccccc1
3. Cc1ccc(/C=C2/C(=O)C3(C)CCC2C3(C)C)cc1 (stereo not drawn)
4. O=C(OC[C@@H]1O[C@@](O)(COC(=O)c2cccnc2)[C@H](OC(=O)c2cccnc2)[C@H]1OC(=O)c1cccnc1)c1cccnc1
5. CC12C=CC(=O)C=C1[C@@H](F)CC1C2C(O)CC2(C)C1CC[C@]2(O)C(=O)CO (stereo partly drawn)
6. CCCSS/C(CCO)=C(/C)N(C=O)Cc1cnc(C)nc1N

Result:
inactive
inactive
inactive
inactive
inactive
inactive
